All values here come from ChEMBL document CHEMBL4359893.

tested on: Trypanosoma cruzi; test: Trypanocidal activity against Trypanosoma cruzi Y strain bloodstream trypomastigotes isolated from infected Swiss webster mouse cardiac cells assessed as reduction in parasite viability after 24 hrs by Celltiter-Glo assay; type: functional, organism-based
MEASURED METRIC: IC50

Item under review: `Nc1c(C2=NCCN2)cnn1-c1ccccc1` . Reported IC50?
> 100 µM

Item under review: `O=C(Cn1ccnc1[N+](=O)[O-])NCc1ccccc1` . Reported IC50?
23.3 µM

Item under review: `COc1ccc(-n2ncc(C3=NCCCN3)c2N)cc1` . Reported IC50?
> 100 µM

Item under review: `Nc1c(C2=NCCCN2)cnn1-c1ccc(F)cc1` . Reported IC50?
> 100 µM

Item under review: `Nc1c(C2=NCCN2)cnn1-c1ccc(F)cc1` . Reported IC50?
> 100 µM

Item under review: `Nc1c(C2=NCCCN2)cnn1-c1cccc(Br)c1` . Reported IC50?
> 100 µM

Item under review: `Nc1c(C2=NCCN2)cnn1-c1cccc(Cl)c1` . Reported IC50?
31.3 µM

Item under review: `Nc1c(C2=NCCCN2)cnn1-c1ccc(Br)cc1` . Reported IC50?
> 100 µM

Item under review: `Nc1c(C2=NCCCN2)cnn1-c1ccc(Cl)cc1` . Reported IC50?
> 100 µM

Item under review: `Nc1c(C2=NCCN2)cnn1-c1cccc(Br)c1` . Reported IC50?
27.7 µM

Item under review: `Nc1c(C2=NCCCN2)cnn1-c1cccc(Cl)c1` . Reported IC50?
> 100 µM

Item under review: `Nc1c(C2=NCCN2)cnn1-c1cc(Cl)cc(Cl)c1` . Reported IC50?
30.9 µM

Item under review: `Nc1c(C2=NCCCN2)cnn1-c1ccccc1` . Reported IC50?
> 100 µM
